Here the recorded peptide exchange yield is given for each entry.
# target: HLA-A*24 (human)
# assayDetails: UV-exchange b2m ELISA

Answered examples (10):
IYLVSIPEL > 75%
TYKDEGNDYF 50 to 75%
YYEVHKELF > 75%
RYLNKAFHI 50 to 75%
TYGDAGLTYTF 50 to 75%
QYLQDAYSF > 75%
RYISDQLFTNF > 75%
EYNQWFTKL 50 to 75%
EYPLVINTL 50 to 75%
TFSVSSHLF 50 to 75%

Shifting focus to the binder that follows.
INPUT: Please report the recorded peptide exchange yield for NYYEVHKELF .
OUTPUT: 50 to 75%
